# system.name: ACE2 (Homo sapiens, UniProt Q9BYF1)
# Sequence (Q9BYF1 18-805, species assumed): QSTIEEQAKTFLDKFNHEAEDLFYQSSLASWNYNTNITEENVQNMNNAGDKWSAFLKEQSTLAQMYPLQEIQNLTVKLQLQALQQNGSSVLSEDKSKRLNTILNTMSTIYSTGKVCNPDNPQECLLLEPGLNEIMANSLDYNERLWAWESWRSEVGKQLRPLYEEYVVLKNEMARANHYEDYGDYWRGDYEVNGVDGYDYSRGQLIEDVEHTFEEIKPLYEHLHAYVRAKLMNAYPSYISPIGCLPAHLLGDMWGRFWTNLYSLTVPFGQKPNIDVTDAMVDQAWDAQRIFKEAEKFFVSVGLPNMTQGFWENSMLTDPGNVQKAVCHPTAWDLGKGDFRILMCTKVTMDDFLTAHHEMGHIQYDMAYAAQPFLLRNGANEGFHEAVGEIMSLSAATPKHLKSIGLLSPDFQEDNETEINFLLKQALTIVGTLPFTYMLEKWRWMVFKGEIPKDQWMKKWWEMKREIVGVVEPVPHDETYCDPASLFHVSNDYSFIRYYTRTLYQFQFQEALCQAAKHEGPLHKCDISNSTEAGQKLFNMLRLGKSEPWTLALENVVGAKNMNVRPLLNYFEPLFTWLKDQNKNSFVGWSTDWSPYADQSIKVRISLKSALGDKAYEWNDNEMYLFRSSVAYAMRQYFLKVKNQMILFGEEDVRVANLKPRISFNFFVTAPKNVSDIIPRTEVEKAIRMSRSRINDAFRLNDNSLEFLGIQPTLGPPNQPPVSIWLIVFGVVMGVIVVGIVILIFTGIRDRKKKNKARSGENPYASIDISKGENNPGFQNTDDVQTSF
# assay.method.text: ACE2 quenched fluorescence substrate (QFS) inhibition assay
# Format: biochemical
# measurement.parameters: peptide 100 μM; 50 uM QFS MCA-APK(DNP)-OH, 1 M NaCl, 100 mM Tris-Cl pH 6.5, 37 °C, 1 h, fluorescence; triplicate; read-out: ACE2 inhibition of single substitution analogs of the C-terminal of AngII (Table 1)
Peptide text beside a SMILES is read from it.
measurement.type: inhibition at 100 µM (%)

compound: CC[C@H](C)[C@H](N)C(=O)N[C@@H](CCCCN)C(=O)N1CCC[C@H]1C(=O)N[C@@H](Cc1ccccc1)C(=O)O [IKPF] (H-IKPF-OH)
unit.string: %
inhibition at 100 µM: 28
//
compound: CC[C@H](C)[C@H](N)C(=O)N[C@@H](Cc1c[nH]cn1)C(=O)N[C@@H](Cc1c[nH]cn1)C(=O)N[C@@H](Cc1ccccc1)C(=O)O [IHHF] (H-IHHF-OH)
unit.string: %
inhibition at 100 µM: 14
//
compound: CC[C@H](C)[C@H](N)C(=O)N[C@@H](Cc1c[nH]cn1)C(=O)N[C@@H](Cc1c[nH]c2ccccc12)C(=O)N[C@@H](Cc1ccccc1)C(=O)O [IHWF] (H-IHWF-OH)
unit.string: %
inhibition at 100 µM: 0

A. CC[C@H](C)[C@H](N)C(=O)N1CCC[C@H]1C(=O)N1CCC[C@H]1C(=O)N[C@@H](Cc1ccccc1)C(=O)O [IPPF] (H-IPPF-OH)
B. CC[C@H](C)[C@H](N)C(=O)N[C@@H](Cc1c[nH]cn1)C(=O)N[C@@H](C)C(=O)N[C@@H](Cc1ccccc1)C(=O)O [IHAF] (H-IHAF-OH)
C. CC[C@H](C)[C@H](N)C(=O)N[C@@H](Cc1c[nH]cn1)C(=O)N1CCC[C@H]1C(=O)N[C@H](C(=O)O)[C@@H](C)CC [IHPI] (H-IHPI-OH)
Query: List from greatest to least inhibition at 100 µM. Output spec: a listing of the labels in the requested order.
Result: C, B, A
(C: 36%, B: 19%, A: 0%)

* * *

# system.name: ACE2 (Homo sapiens, UniProt Q9BYF1)
# assay.method.text: ACE2 quenched fluorescence substrate (QFS) inhibition assay
# Assay type: biochemical
# measurement.parameters: read-out: ACE2 inhibition of terminally modified IHPF analogs, 10 μM (Table 3, in brackets); peptide 10 μM; 50 uM QFS, 1 M NaCl, 100 mM Tris-Cl pH 6.5, 37 °C, 1 h
Peptide text beside a SMILES is read from it.
measurement.type: inhibition at 10 µM (%)

Some solved cases for reference:
molecule: CC(C)[C@H](N)C(=O)N[C@@H](Cc1c[nH]cn1)C(=O)N[C@H](C(=O)N[C@@H](Cc1ccccc1)C(N)=O)C(C)C [C-amidated VHVF] (H-VHVF-NH2)
inhibition at 10 µM, %: 40
//
molecule: CC[C@H](C)[C@H](NC(C)=O)C(=O)N[C@@H](Cc1ccc(O)cc1)C(=O)N1CCC[C@H]1C(=O)N[C@@H](Cc1ccccc1)C(=O)O [N-acetylated IYPF] (Ac-IYPF-OH)
inhibition at 10 µM, %: 62
//
molecule: CC(=O)N[C@H](C(=O)N[C@@H](Cc1c[nH]cn1)C(=O)N[C@H](C(=O)N[C@@H](Cc1ccccc1)C(=O)O)C(C)C)C(C)C [N-acetylated VHVF] (Ac-VHVF-OH)
inhibition at 10 µM, %: 31

1. CC(=O)N[C@H](C(=O)N[C@@H](Cc1ccc(O)cc1)C(=O)N1CCC[C@H]1C(=O)N[C@@H](Cc1ccccc1)C(=O)O)C(C)C [N-acetylated VYPF] (Ac-VYPF-OH)
2. CC[C@H](C)[C@H](NC(C)=O)C(=O)N[C@@H](Cc1c[nH]cn1)C(=O)N1CCC[C@H]1C(=O)N[C@@H](Cc1ccccc1)C(=O)O [N-acetylated IHPF] (Ac-IHPF-OH)
Query: Quick check, higher inhibition at 10 µM between 1 and 2 ? Output the label that corresponds to your choice.
Result: 1
(1: 79%, 2: 41%)

* * *

# system.name: ACE2 (Homo sapiens)
# assay.method.text: ACE2 quenched fluorescence substrate (QFS) inhibition assay
# Type: biochemical
# measurement.parameters: peptide 1 μM; QFS assay, pH 6.5, 37 °C, 1 h; value ± spread
measurement.type: Inhibition (%) of ACE2, AngII chimeras, 1 μM

I. DRVYVYPβF
II. DRVYVYβPF
Query: Which of these two has the smaller recorded Inhibition (%) of ACE2, AngII chimeras, 1 μM: I or II ? Provide the label of your selected option as the answer.
Result: II

* * *

# system.name: ACE2 (Homo sapiens)
# assay.method.text: ACE2 quenched fluorescence substrate (QFS) inhibition assay
# Assay type: biochemical
# measurement.parameters: peptide 100 μM; 50 uM QFS MCA-APK(DNP)-OH, 1 M NaCl, 100 mM Tris-Cl pH 6.5, 37 °C, 1 h, fluorescence; triplicate; read-out: ACE2 inhibition of single substitution analogs of the C-terminal of AngII (Table 1)
Peptide text beside a SMILES is read from it.
measurement.type: inhibition at 100 µM (%)

1. CC[C@H](C)[C@H](N)C(=O)N[C@@H](Cc1c[nH]cn1)C(=O)N1CCC[C@H]1C(=O)N[C@@H](Cc1c[nH]cn1)C(=O)O [IHPH] (H-IHPH-OH)
2. O=C(O)[C@H](Cc1ccccc1)NC(=O)[C@@H]1CCCN1C(=O)[C@H](Cc1c[nH]cn1)NC(=O)[C@@H]1CCCN1 [PHPF] (H-PHPF-OH)
Query: # min-compare on inhibition at 100 µM between 1 and 2 Bench note: the answer is the label of the chosen record.
Result: 1
(1: 54%, 2: 78%)

A. CC(C)[C@H](N)C(=O)N[C@@H](Cc1c[nH]cn1)C(=O)N1CCC[C@H]1C(=O)N[C@@H](Cc1ccccc1)C(=O)O [VHPF] (H-VHPF-OH)
B. CC[C@H](C)[C@H](N)C(=O)N[C@@H](Cc1c[nH]cn1)C(=O)N[C@@H](CC(C)C)C(=O)N[C@@H](Cc1ccccc1)C(=O)O [IHLF] (H-IHLF-OH)
Query: In terms of reported inhibition at 100 µM, does A or B have the smaller number? Which one? Tell me its label.
Result: B
(B: 0%, A: 78%)

A. CC[C@H](C)[C@H](N)C(=O)N[C@@H](Cc1c[nH]cn1)C(=O)N[C@@H](Cc1ccccc1)C(=O)N[C@@H](Cc1ccccc1)C(=O)O [IHFF] (H-IHFF-OH)
B. CC[C@H](C)[C@H](N)C(=O)N[C@@H](CCCNC(=N)N)C(=O)N1CCC[C@H]1C(=O)N[C@@H](Cc1ccccc1)C(=O)O [IRPF] (H-IRPF-OH)
Query: Consider A and B . Which of these has its inhibition at 100 µM at a higher number? Give the label of your selection.
Result: B
(B: 33%, A: 0%)

* * *

# system.name: ACE2 (Homo sapiens, UniProt Q9BYF1)
# assay.method.text: ACE2 quenched fluorescence substrate (QFS) inhibition assay
# Assay type: biochemical
# measurement.parameters: read-out: ACE2 inhibition of terminally modified IHPF analogs, 100 μM (Table 3); peptide 100 μM; 50 uM QFS, 1 M NaCl, 100 mM Tris-Cl pH 6.5, 37 °C, 1 h
Peptide text beside a SMILES is read from it.
measurement.type: inhibition at 100 µM (%)

compound: CC[C@H](C)[C@H](N)C(=O)N[C@@H](Cc1c[nH]cn1)C(=O)N1CCC[C@H]1C(=O)N[C@@H](Cc1ccccc1)C(=O)O [IHPF, Ile-His-Pro-Phe, reference compound] (H-IHPF-OH)
measurement.type: inhibition at 100 µM
measured.result: 66

compound: CC[C@H](C)[C@H](NC(C)=O)C(=O)N[C@@H](Cc1c[nH]cn1)C(=O)N1CCC[C@H]1C(=O)N[C@@H](Cc1ccccc1)C(=O)O [N-acetylated IHPF] (Ac-IHPF-OH)
measurement.type: inhibition at 100 µM
measured.result: 87

compound: CC(=O)N1CCC[C@H]1C(=O)N[C@@H](Cc1ccc(O)cc1)C(=O)N[C@H](C(=O)N[C@@H](Cc1ccccc1)C(=O)O)C(C)C [N-acetylated PYVF] (Ac-PYVF-OH)
measurement.type: inhibition at 100 µM
measured.result: 78

compound: CC(C)[C@H](NC(=O)[C@H](Cc1ccc(O)cc1)NC(=O)[C@@H]1CCCN1)C(=O)N[C@@H](Cc1ccccc1)C(=O)O [PYVF] (H-PYVF-OH)
measurement.type: inhibition at 100 µM
measured.result: 94

compound: CC[C@H](C)[C@H](N)C(=O)N[C@@H](Cc1ccc(O)cc1)C(=O)N1CCC[C@H]1C(=O)N[C@@H](Cc1ccccc1)C(=O)O [IYPF] (H-IYPF-OH)
measurement.type: inhibition at 100 µM
measured.result: 84
